tested on: murine embryonic stem cells (murine ES cells); assay: Evaluation of undifferentiated state-maintaining effect on stem cells (Nanog gene expression, real-time PCR); type: cell-based; conditions: final concentration 0.001%, 3 days of culture, Nanog/Gapdh relative expression at onset of culture defined as 100% undifferentiation, no addition control 25
Entries and their Nanog expression level (%) after 3 days of culturing
readout: Nanog expression level (%) after 3 days of culturing

{"compound": "CCCCCC=CCC=CCCCCCCCC(=O)OCC(COC(=O)CCCCCCCC=CCC=CCCCCC)OC(=O)CCCCCCCC=CCC=CCCCCC (stereo not drawn) [Fatty acid glyceride 9, Trilinolein]", "observed": 34}
{"compound": "CCCCCC=CCC=CCCCCCCCC(=O)OCC(O)CO (stereo not drawn) [Fatty acid glyceride 1, 1-Monolinolein]", "observed": 33}
{"compound": "CCCCCCCCC=CCCCCCCCC(=O)OCC(O)COC(=O)CCCCCCCC=CCCCCCCCC (stereo not drawn) [Fatty acid glyceride 6, 1,3-Diolein]", "observed": 43}
{"compound": "CCCCCC=CCC=CCCCCCCCC(=O)OCC(O)COC(=O)CCCCCCCCCCCCCCC (stereo not drawn) [Fatty acid glyceride 2, 1-Palmitin-3-linolein]", "observed": 71}
{"compound": "CCCCCC=CCC=CCCCCCCCC(=O)OCC(O)COC(=O)CCCCCCCC=CCCCCCCCC (stereo not drawn) [Fatty acid glyceride 4, 1-Olein-3-linolein]", "observed": 59}
{"compound": "CCCCCC=CCC=CCCCCCCCC(=O)OCC(O)COC(=O)CCCCCCCCCCCCCCCCC (stereo not drawn) [Fatty acid glyceride 5, 1-Stearin-3-linolein]", "observed": 57}

====

# Lookup of reported Scratch region 48 hours later (%) keyed by entry
tested on: human somatic stem cells; test: In vitro wound healing test (scratch assay); type: cell-based; conditions: final concentration 0.001%, 100 × area of scratch region at 48 hours / area at 0 hours, no addition control 61
readout: Scratch region 48 hours later (%)

{"molecule": "CCCCCC=CCC=CCCCCCCCC(=O)OCC(O)COC(=O)CCCCCCCC=CCC=CCCCCC (stereo not shown) [Fatty acid glyceride 3, 1,3-Dilinolein]", "test.system": "human somatic stem cells", "readout": "Scratch region 48 hours later (%)", "observed": 32}
{"molecule": "CCCCCC=CCC=CCCCCCCCC(=O)OCC(O)COC(=O)CCCCCCCCCCCCCCCCC (stereo not shown) [Fatty acid glyceride 5, 1-Stearin-3-linolein]", "test.system": "human somatic stem cells", "readout": "Scratch region 48 hours later (%)", "observed": 40}
{"molecule": "CCCCCC=CCC=CCCCCCCCC(=O)OCC(COC(=O)CCCCCCCC=CCC=CCCCCC)OC(=O)CCCCCCCC=CCC=CCCCCC (stereo not shown) [Fatty acid glyceride 9, Trilinolein]", "test.system": "human somatic stem cells", "readout": "Scratch region 48 hours later (%)", "observed": 53}
{"molecule": "CCCCCCCC/C=C\\CCCCCCCC(=O)OCC(COC(=O)CCCCCCC/C=C\\CCCCCCCC)OC(=O)CCCCCCC/C=C\\CCCCCCCC [Fatty acid glyceride 8, Triolein]", "test.system": "human somatic stem cells", "readout": "Scratch region 48 hours later (%)", "observed": 52}
{"molecule": "CCCCCC=CCC=CCCCCCCCC(=O)OCC(O)CO (stereo not shown) [Fatty acid glyceride 1, 1-Monolinolein]", "test.system": "human somatic stem cells", "readout": "Scratch region 48 hours later (%)", "observed": 54}
{"molecule": "CCCCCCCCC=CCCCCCCCC(=O)OCC(O)COC(=O)CCCCCCCC=CCCCCCCCC (stereo not shown) [Fatty acid glyceride 6, 1,3-Diolein]", "test.system": "human somatic stem cells", "readout": "Scratch region 48 hours later (%)", "observed": 44}
{"molecule": "CCCCCCCCCCCCCCCC(=O)OCC(COC(=O)CCCCCCCCCCCCCCC)OC(=O)CCCCCCCCCCCCCCC [Tripalmitin, reference compound]", "test.system": "human somatic stem cells", "readout": "Scratch region 48 hours later (%)", "observed": 59}
